Target: RSV F protein of subtype A strain A2, on virus (respiratory syncytial virus subtype A …, UniProt P03420 26-574)
Test: cell-based or functional assay
measurementName: Neut IC50 (ug/ml) subtype A (µg/mL)
Answers are plain numbers, in µg/mL.

binder	measurementName	unitAbbreviation	reportedMeasurement
ADI-15555 (antibody, V domains shown) VH: EVQLVESGGALVKPGGSLRLSCVGTGLTFTTAYMSWARQAPGKGLEWVGRIKSKSDGGTTDYPTPVKGRFTISRDESKNTLYLQMNSLKIEDTAVYYCTTDRGITARPIFDSWGQGTLVTVSS VL: QSVLTQPPSVSGALGRRVTISCTGSSSNIGAGYDVHWYRQLPGTAPKLLIYGNTKRPSGVPDRFSGSKYATSASLAITGLQAEDDADYYCQSYDGGLSGYVFGTGTKLTVL	Neut IC50 (ug/ml) subtype A	µg/mL	2.19

Provide reported Neut IC50 (ug/ml) subtype A for each item, in the same order as listed.
1. ADI-15652 (antibody, V domains shown, IgG) VH: EVQLLESGGGVVQPGRSLRLSCAASGFTFSDFSMHWVRQAPGKGLEWVALISNDGSNKYYSDSLKGSFIISRDNSKNTLYLQLNSLGAEDTALYYCARDAVPHYDYVWGNFDYWGQGTLVTVSS VL: QSVLTQPASVSASPGQSITISCTGTSSDVGGYNYVSWYQQHPGKAPKLIIYEVSNRPSGVSNRFSGSKSGNTASLTISGLQADDEADYYCSSYTSFTPVVFGGGTKLTVL
2. ADI-15571 (antibody, V domains shown, IgG) VH: QVQLVQSGAEVKKPGASVKVSCKASGYSFTDYYIHWVRQAPGQGLEWIGWINPNSGGTTFAQNFQGRVTMTRDTSISTAFLELSRLKSDDTAVYYCARDVLWLNGFWGLGTLVTVSS VL: QSVVTQPPSVSAAPGQKVTISCSGSSSNIGNNYVSWYQQFRGTAPKVLIYENNKRTSGIPDRFSGSKSGTSATLGITGLQTGDEADYYCGTWDSSLSTGPYVVFGGGTKLTVL

OUTPUT:
1. 0.012
2. 0.541

// provenance: patent US20220144922A1
